# Test system: 996289-038-R-J1-PDC complex spheroid viability
# assay-method-text: Anticancer human tumor 996289-038-R-J1-PDC patient-derived colon adenocarcinoma cell line growth inhibition [CLK]
# stated-conditions: second compound 1 µM; first compound 0.316 µM; stronger effect = lower value
Entries and their viability, T/C values follow.

C#Cc1c(F)ccc2cc(O)cc(-c3ncc4c(N5CC6CCC(C5)N6)nc(OCC56CCCN5CC(F)C6)nc4c3F)c12 (stereo not given) + CN1CCN(c2cc(C(=O)Nc3cc4cc(-c5cnn(C)c5)ccc4cn3)ccn2)CC1 = 3.5%
Nc1ccccc1NC(=O)c1ccc(CNC(=O)OCc2cccnc2)cc1 + CNC(=O)c1ccc(Nc2nc(OC3CCCC3)c3c(-c4ccc5nc(C)oc5c4)c[nH]c3n2)c(OC)c1 = 66.7%
Nc1ccccc1NC(=O)c1ccc(CNC(=O)OCc2cccnc2)cc1 + CN1CCN(c2cc(C(=O)Nc3cc4cc(-c5cnn(C)c5)ccc4cn3)ccn2)CC1 = 6.13%
COc1c(OCCCN2CCOCC2)ccc2c3n(c(=NC(=O)c4cnc(N)nc4)nc12)CCN3 + CNC(=O)c1ccc(Nc2nc(OC3CCCC3)c3c(-c4ccc5nc(C)oc5c4)c[nH]c3n2)c(OC)c1 = 15.6%

Next molecule, please.
Ask | viability, T/C for O=C(c1cc(Cc2n[nH]c(=O)c3ccccc23)ccc1F)N1CCN(C(=O)C2CC2)CC1 + CN1CCN(c2cc(C(=O)Nc3cc4cc(-c5cnn(C)c5)ccc4cn3)ccn2)CC1 ?
Reply | 5.54%

---

# Tested on: 996289-038-R-J1-PDC complex spheroid viability
# assay-method-text: Anticancer human tumor 996289-038-R-J1-PDC cell line growth inhibition [CLK]; active = viability on the fitted dose curve at most 10% of control; inactive = the rest;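 note: spheroids exposed to the agents for 7 days before readout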
# stated-conditions: second compound 10 µM; first compound 10 µM
Outcome field: choose from label 1 = active, label 0 = inactive

Use the examples below as a reference point.
CC1COCCN1c1cc(C2(S(C)(=N)=O)CC2)nc(-c2ccnc3[nH]ccc23)n1 (configuration not stated) + CN1CCN(c2cc(C(=O)Nc3cc4cc(-c5cnn(C)c5)ccc4cn3)ccn2)CC1 = label 1
CC(Nc1ccc2c(c1)OCCn1cc(N3C(=O)OCC3C(F)F)nc1-2)C(N)=O (configuration not stated) + CNC(=O)c1ccc(Nc2nc(OC3CCCC3)c3c(-c4ccc5nc(C)oc5c4)c[nH]c3n2)c(OC)c1 = label 0
Nc1ccn(C2OC(CO)C(O)C2(F)F)c(=O)n1 (configuration not stated) + CN1CCN(c2cc(C(=O)Nc3cc4cc(-c5cnn(C)c5)ccc4cn3)ccn2)CC1 = label 1

Ask | I would be grateful if you could indicate the recorded call for CC1(C)CCC(CN2CCN(c3ccc(C(=O)NS(=O)(=O)c4ccc(NCC5CCOCC5)c([N+](=O)[O-])c4)c(Oc4cnc5[nH]ccc5c4)c3)CC2)=C(c2ccc(Cl)cc2)C1 + CNC(=O)c1ccc(Nc2nc(OC3CCCC3)c3c(-c4ccc5nc(C)oc5c4)c[nH]c3n2)c(OC)c1 .
Reply | label 0

Ask | I would be grateful if you could indicate the recorded call for COc1cccc2c1C(=O)c1c(O)c3c(c(O)c1C2=O)CC(O)(C(=O)CO)CC3OC1CC(N)C(O)C(C)O1 (configuration not stated) + CNC(=O)c1ccc(Nc2nc(OC3CCCC3)c3c(-c4ccc5nc(C)oc5c4)c[nH]c3n2)c(OC)c1 .
Reply | label 1

Ask | I would be grateful if you could indicate the recorded call for O=c1[nH]cc(F)c(=O)[nH]1 + CNC(=O)c1ccc(Nc2nc(OC3CCCC3)c3c(-c4ccc5nc(C)oc5c4)c[nH]c3n2)c(OC)c1 .
Reply | label 0

Ask | I would be grateful if you could indicate the recorded call for O=C(c1cc(Cc2n[nH]c(=O)c3ccccc23)ccc1F)N1CCN(C(=O)C2CC2)CC1 + CNC(=O)c1ccc(Nc2nc(OC3CCCC3)c3c(-c4ccc5nc(C)oc5c4)c[nH]c3n2)c(OC)c1 .
Reply | label 0

---

# System: 996289-038-R-J1-PDC complex spheroid viability
# assay-method-text: Anticancer human tumor 996289-038-R-J1-PDC cell line growth inhibition [CLK]; active = viability on the fitted dose curve at most 10% of control; inactive = the rest;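 note: spheroids exposed to the agents for 7 days before readout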
# stated-conditions: second compound 0.0316 µM; first compound 0.03 µM
# Text: A high-throughput screen of multi-cell type tumor spheroids was designed to identify active combinations of […] and targeted small molecules. Complex spheroids include a stromal component modeled by human endothelial cells (HUVEC) and fibroblasts modeled by human mesenchymal stem cells (MSCs). […] Compounds. […] If the clinical Cmax for an agent had not been determined, the highest concentration tested was 10 microM. […]
Outcome field: choose from active, inactive

Use the examples below as a reference point.
CC(C)CC(NC(=O)C(Cc1ccccc1)NC(=O)c1cnccn1)B(O)O (stereo unspecified) + CNC(=O)c1ccc(Nc2nc(OC3CCCC3)c3c(-c4ccc5nc(C)oc5c4)c[nH]c3n2)c(OC)c1 = active
C=CC(=O)Nc1cc(Nc2nccc(-c3cn(C)c4ccccc34)n2)c(OC)cc1N(C)CCN(C)C + CNC(=O)c1ccc(Nc2nc(OC3CCCC3)c3c(-c4ccc5nc(C)oc5c4)c[nH]c3n2)c(OC)c1 = inactive
NC(=O)C(=Cn1cnc(-c2cc(C(F)(F)F)cc(C(F)(F)F)c2)n1)c1cncnc1 + CNC(=O)c1ccc(Nc2nc(OC3CCCC3)c3c(-c4ccc5nc(C)oc5c4)c[nH]c3n2)c(OC)c1 = inactive

Ask | I would be grateful if you could indicate the recorded call for CC(C)CC(NC(=O)C(Cc1ccccc1)NC(=O)c1cnccn1)B(O)O (stereo unspecified) + CN1CCN(c2cc(C(=O)Nc3cc4cc(-c5cnn(C)c5)ccc4cn3)ccn2)CC1 .
Reply | active

Ask | I would be grateful if you could indicate the recorded call for C=CC(=O)Nc1cc(Nc2nccc(-c3cn(C)c4ccccc34)n2)c(OC)cc1N(C)CCN(C)C + CN1CCN(c2cc(C(=O)Nc3cc4cc(-c5cnn(C)c5)ccc4cn3)ccn2)CC1 .
Reply | inactive

Ask | I would be grateful if you could indicate the recorded call for NC(=O)C(=Cn1cnc(-c2cc(C(F)(F)F)cc(C(F)(F)F)c2)n1)c1cncnc1 + CN1CCN(c2cc(C(=O)Nc3cc4cc(-c5cnn(C)c5)ccc4cn3)ccn2)CC1 .
Reply | inactive

---

# Test system: 996289-038-R-J1-PDC complex spheroid viability
# assay-method-text: Anticancer human tumor 996289-038-R-J1-PDC cell line growth inhibition [CLK]; active = viability on the fitted dose curve at most 10% of control; inactive = the rest;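 note: spheroids exposed to the agents for 7 days before readout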
# stated-conditions: second compound 10 µM; first compound 10 µM
Outcome field: choose from active, inactive

Nc1ccn(C2OC(CO)C(O)C2(F)F)c(=O)n1 (stereo not given) + CNC(=O)c1ccc(Nc2nc(OC3CCCC3)c3c(-c4ccc5nc(C)oc5c4)c[nH]c3n2)c(OC)c1 = inactive
C=CC(=O)N1CCN(c2nc(=O)n(-c3c(C)ccnc3C(C)C)c3nc(-c4c(O)cccc4F)c(F)cc23)C(C)C1 (stereo not given) + CN1CCN(c2cc(C(=O)Nc3cc4cc(-c5cnn(C)c5)ccc4cn3)ccn2)CC1 = active
C=CC(=O)N1CCN(c2nc(=O)n(-c3c(C)ccnc3C(C)C)c3nc(-c4c(O)cccc4F)c(F)cc23)C(C)C1 (stereo not given) + CNC(=O)c1ccc(Nc2nc(OC3CCCC3)c3c(-c4ccc5nc(C)oc5c4)c[nH]c3n2)c(OC)c1 = inactive
CC(=O)O[C@H]1C(=O)[C@@]2(C)[C@H]([C@H](OC(=O)c3ccccc3)[C@]3(O)C[C@H](OC(=O)[C@H](O)[C@@H](NC(=O)c4ccccc4)c4ccccc4)C(C)=C1C3(C)C)[C@]1(OC(C)=O)CO[C@@H]1C[C@@H]2O + CN1CCN(c2cc(C(=O)Nc3cc4cc(-c5cnn(C)c5)ccc4cn3)ccn2)CC1 = active
CC1COCCN1c1cc(C2(S(C)(=N)=O)CC2)nc(-c2ccnc3[nH]ccc23)n1 (stereo not given) + CNC(=O)c1ccc(Nc2nc(OC3CCCC3)c3c(-c4ccc5nc(C)oc5c4)c[nH]c3n2)c(OC)c1 = inactive

Ask | I would be grateful if you could indicate the recorded call for COc1ccc([C@@H](O)c2cc(-c3ncnc4cc(N5CCOCC5)ccc34)c(F)cc2Cl)nn1 + CN1CCN(c2cc(C(=O)Nc3cc4cc(-c5cnn(C)c5)ccc4cn3)ccn2)CC1 .
Reply | active

Ask | I would be grateful if you could indicate the recorded call for CC(CO)NC(=O)c1cc(-c2ccc(Cl)cc2)nn(-c2cnn(C)c2)c1=O (stereo not given) + CNC(=O)c1ccc(Nc2nc(OC3CCCC3)c3c(-c4ccc5nc(C)oc5c4)c[nH]c3n2)c(OC)c1 .
Reply | inactive

---

# Tested on: 996289-038-R-J1-PDC complex spheroid viability
# assay-method-text: Anticancer human tumor 996289-038-R-J1-PDC cell line growth inhibition [CLK];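 note: spheroids exposed to the agents for 7 days before readout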
# stated-conditions: second compound 0.316 µM; first compound 1 µM; stronger effect = lower value
assay-readout: viability, T/C (%)
Expressed in %, but write only the number.

Nc1ccn(C2OC(CO)C(O)C2(F)F)c(=O)n1 (stereo not given) + CNC(=O)c1ccc(Nc2nc(OC3CCCC3)c3c(-c4ccc5nc(C)oc5c4)c[nH]c3n2)c(OC)c1 = 56.1
O=C(c1cc(Cc2n[nH]c(=O)c3ccccc23)ccc1F)N1CCN(C(=O)C2CC2)CC1 + CN1CCN(c2cc(C(=O)Nc3cc4cc(-c5cnn(C)c5)ccc4cn3)ccn2)CC1 = 58.4
COc1ccc([C@@H](O)c2cc(-c3ncnc4cc(N5CCOCC5)ccc34)c(F)cc2Cl)nn1 + CN1CCN(c2cc(C(=O)Nc3cc4cc(-c5cnn(C)c5)ccc4cn3)ccn2)CC1 = 59.8
CC1COCCN1c1cc(C2(S(C)(=N)=O)CC2)nc(-c2ccnc3[nH]ccc23)n1 (stereo not given) + CNC(=O)c1ccc(Nc2nc(OC3CCCC3)c3c(-c4ccc5nc(C)oc5c4)c[nH]c3n2)c(OC)c1 = 73.2
C#Cc1c(F)ccc2cc(O)cc(-c3ncc4c(N5CC6CCC(C5)N6)nc(OCC56CCCN5CC(F)C6)nc4c3F)c12 (stereo not given) + CNC(=O)c1ccc(Nc2nc(OC3CCCC3)c3c(-c4ccc5nc(C)oc5c4)c[nH]c3n2)c(OC)c1 = 28.3
CC(CO)NC(=O)c1cc(-c2ccc(Cl)cc2)nn(-c2cnn(C)c2)c1=O (stereo not given) + CNC(=O)c1ccc(Nc2nc(OC3CCCC3)c3c(-c4ccc5nc(C)oc5c4)c[nH]c3n2)c(OC)c1 = 71.4
CC1(C)CCC(CN2CCN(c3ccc(C(=O)NS(=O)(=O)c4ccc(NCC5CCOCC5)c([N+](=O)[O-])c4)c(Oc4cnc5[nH]ccc5c4)c3)CC2)=C(c2ccc(Cl)cc2)C1 + CNC(=O)c1ccc(Nc2nc(OC3CCCC3)c3c(-c4ccc5nc(C)oc5c4)c[nH]c3n2)c(OC)c1 = 90.7
CCc1c2c(nc3ccc(O)cc13)-c1cc3c(c(=O)n1C2)COC(=O)[C@]3(O)CC + CN1CCN(c2cc(C(=O)Nc3cc4cc(-c5cnn(C)c5)ccc4cn3)ccn2)CC1 = 6.98
COC1C=CCC(C)C(C)S(=O)(=O)NC(=O)c2ccc3c(c2)N(CC2CCC21)CC1(CCCc2cc(Cl)ccc21)CO3 (stereo not given) + CN1CCN(c2cc(C(=O)Nc3cc4cc(-c5cnn(C)c5)ccc4cn3)ccn2)CC1 = 53.9
O=c1[nH]cc(F)c(=O)[nH]1 + CNC(=O)c1ccc(Nc2nc(OC3CCCC3)c3c(-c4ccc5nc(C)oc5c4)c[nH]c3n2)c(OC)c1 = 69.6

Ask | viability, T/C for CC(Nc1ccc2c(c1)OCCn1cc(N3C(=O)OCC3C(F)F)nc1-2)C(N)=O (stereo not given) + CNC(=O)c1ccc(Nc2nc(OC3CCCC3)c3c(-c4ccc5nc(C)oc5c4)c[nH]c3n2)c(OC)c1 ?
Reply | 47.4

Ask | viability, T/C for CC(=O)O[C@H]1C(=O)[C@@]2(C)[C@H]([C@H](OC(=O)c3ccccc3)[C@]3(O)C[C@H](OC(=O)[C@H](O)[C@@H](NC(=O)c4ccccc4)c4ccccc4)C(C)=C1C3(C)C)[C@]1(OC(C)=O)CO[C@@H]1C[C@@H]2O + CN1CCN(c2cc(C(=O)Nc3cc4cc(-c5cnn(C)c5)ccc4cn3)ccn2)CC1 ?
Reply | 34.2

Ask | viability, T/C for C=CC(=O)N1CCN(c2nc(=O)n(-c3c(C)ccnc3C(C)C)c3nc(-c4c(O)cccc4F)c(F)cc23)C(C)C1 (stereo not given) + CNC(=O)c1ccc(Nc2nc(OC3CCCC3)c3c(-c4ccc5nc(C)oc5c4)c[nH]c3n2)c(OC)c1 ?
Reply | 89.1

Ask | viability, T/C for CCCS(=O)(=O)Nc1ccc(F)c(C(=O)c2c[nH]c3ncc(-c4ccc(Cl)cc4)cc23)c1F + CN1CCN(c2cc(C(=O)Nc3cc4cc(-c5cnn(C)c5)ccc4cn3)ccn2)CC1 ?
Reply | 76.6

Ask | viability, T/C for O=C(c1cc(Cc2n[nH]c(=O)c3ccccc23)ccc1F)N1CCN(C(=O)C2CC2)CC1 + CNC(=O)c1ccc(Nc2nc(OC3CCCC3)c3c(-c4ccc5nc(C)oc5c4)c[nH]c3n2)c(OC)c1 ?
Reply | 75.4

Ask | viability, T/C for C=C(F)C(=O)N1CCN(c2nc(OCC3CCCN3C)nc3c2CCN(c2cccc4cccc(Cl)c24)C3)CC1CC#N (stereo not given) + CN1CCN(c2cc(C(=O)Nc3cc4cc(-c5cnn(C)c5)ccc4cn3)ccn2)CC1 ?
Reply | 64.8

Ask | viability, T/C for C=CC(=O)N1CCN(c2nc(=O)n(-c3c(C)ccnc3C(C)C)c3nc(-c4c(O)cccc4F)c(F)cc23)C(C)C1 (stereo not given) + CN1CCN(c2cc(C(=O)Nc3cc4cc(-c5cnn(C)c5)ccc4cn3)ccn2)CC1 ?
Reply | 82.5

Origin of measurements: PubChem BioAssay AID2060600
